Consider the following sequences and their measured protein stability index readings.
assay: protein stability index of a GFP-peptide fusion (GPS, HEK-293T) (PSI 1-6); higher = more stable; conditions: treatment: MLN4924 1 uM, 8 h; c terminus: a fixed tail appended;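 also: 24-mer peptide tiles fused after GFP, lentivirally expressed, FACS-sorted into six equal bins by GFP/DsRed ratio, decoded by Illumina sequencing, PSI is the read-weighted mean bin number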

# annotated cases, reported protein stability index shown
MONOMER SEQUENCE: MATRSSDWLRRPLGEDNQPETQLF [TLE6]
protein stability index: 3.87
--
MONOMER SEQUENCE: TVVEEPVDITPYLDQLDESLRDKV [INTS3]
protein stability index: 5.03
--
MONOMER SEQUENCE: LPGPTRPVLGRRAVGGRLRLVPGG [HAGHL]
protein stability index: 3.67

Query: Provide one value: measured protein stability index of ALSFTLLGSAPLDQEPLLSIDLGT [NEK8]
Reply: 2.44

Query: Please report the measured protein stability index for RRHLQFWKSHLKKVQKPLLQAPFL [RHOBTB1]
Reply: 1.59

Query: Fill in reported protein stability index for this entry: AEPSRFSSSDSDFDDEEPRKFYVH [FCHO1]
Reply: 4.87

Query: Query protein stability index for RFLLYTNENPNNFQILLLSDPSTI [PNLIPRP1]
Reply: 2.57
